Provide the recorded MIC for the entries that follow.
- Tested on: Mycoplasmoides pneumoniae
- experiment.summary: Antimicrobial activity against Mycoplasma pneumoniae ATCC 15531 by broth microdilution method
Field: numeric (µg/mL). Do not append units.

Q. Fill in: MIC of CN(C)[C@@H]1C(O)=C(C(N)=O)C(=O)[C@@]2(O)C(O)=C3C(=O)c4c(O)cccc4[C@@](C)(O)[C@H]3C[C@@H]12 is ___
A. 0.06

Q. // same read-out, input: O=C(O)c1cn(C2CC2)c2cc(N3CCNCC3)c(F)cc2c1=O
A. 0.25

Q. // same read-out, input: COc1c(N2C[C@@H]3CCCN[C@@H]3C2)c(F)cc2c(=O)c(C(=O)O)cn(C3CC3)c12
A. 0.06

Q. // same read-out, input: CN(C)c1ccc(O)c2c1C[C@H]1C[C@H]3[C@H](N(C)C)C(O)=C(C(N)=O)C(=O)[C@@]3(O)C(O)=C1C2=O
A. 0.06

Q. // same read-out, input: C[C@H]1COc2c(N3CCN(C)CC3)c(F)cc3c(=O)c(C(=O)O)cn1c23.C[C@H]1COc2c(N3CCN(C)CC3)c(F)cc3c(=O)c(C(=O)O)cn1c23.O
A. 0.25

Q. // same read-out, input: C[C@H]1c2cccc(O)c2C(=O)C2=C(O)[C@]3(O)C(=O)C(C(N)=O)=C(O)[C@@H](N(C)C)[C@@H]3[C@@H](O)[C@@H]21.O
A. 0.03

Ref: ChEMBL document CHEMBL1649430
